These measurements were taken from patent US20200331850A1.

system tested: NLRP3 (Homo sapiens)
Sequence (Q96P20 whole entry): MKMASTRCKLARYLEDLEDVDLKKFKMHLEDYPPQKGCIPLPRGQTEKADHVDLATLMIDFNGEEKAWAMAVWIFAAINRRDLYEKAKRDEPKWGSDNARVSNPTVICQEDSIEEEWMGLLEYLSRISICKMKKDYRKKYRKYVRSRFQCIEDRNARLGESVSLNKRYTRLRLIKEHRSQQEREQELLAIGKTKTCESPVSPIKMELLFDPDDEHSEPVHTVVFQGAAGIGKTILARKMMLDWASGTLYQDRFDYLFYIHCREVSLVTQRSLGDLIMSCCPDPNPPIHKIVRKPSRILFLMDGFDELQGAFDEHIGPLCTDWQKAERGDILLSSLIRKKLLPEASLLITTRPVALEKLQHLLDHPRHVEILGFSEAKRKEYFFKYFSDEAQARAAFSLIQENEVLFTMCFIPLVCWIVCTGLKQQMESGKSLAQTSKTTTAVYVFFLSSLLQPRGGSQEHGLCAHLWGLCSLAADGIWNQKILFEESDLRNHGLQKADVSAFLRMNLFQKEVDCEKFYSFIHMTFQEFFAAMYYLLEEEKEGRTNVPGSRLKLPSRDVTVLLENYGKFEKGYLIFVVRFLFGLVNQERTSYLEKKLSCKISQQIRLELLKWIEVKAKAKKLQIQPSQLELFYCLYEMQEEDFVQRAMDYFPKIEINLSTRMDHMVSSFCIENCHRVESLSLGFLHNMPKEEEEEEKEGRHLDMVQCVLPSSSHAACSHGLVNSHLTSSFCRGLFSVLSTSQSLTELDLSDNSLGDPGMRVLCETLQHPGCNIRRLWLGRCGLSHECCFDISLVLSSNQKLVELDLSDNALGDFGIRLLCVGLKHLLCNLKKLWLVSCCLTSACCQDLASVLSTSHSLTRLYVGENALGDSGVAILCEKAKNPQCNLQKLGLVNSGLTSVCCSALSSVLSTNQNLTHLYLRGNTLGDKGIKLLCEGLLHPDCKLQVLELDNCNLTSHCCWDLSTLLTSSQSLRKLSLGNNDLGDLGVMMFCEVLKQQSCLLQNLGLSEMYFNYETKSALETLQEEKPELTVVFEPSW
measurement description: Human whole blood IL1β release assay (LPS + nigericin, AlphaLisa IL-1β)
Type: cell-based
Set-up: Plate out 80 μl of whole blood containing 1βg/ml of LPS in 96-well, clear bottom cell culture plate; from tissue; host or cells: human whole blood from healthy donors, LPS-primed and nigericin-stimulated
condition notes: NLRP3 inhibitory activity in human whole blood, IL-1β release, 10 μM nigericin, read-out: HWB IC50
Protocol: For systemic delivery, the ability to inhibit NLRP3 when the compounds are present within the bloodstream is of great importance. For this reason, the NLRP3 inhibitory activity of a number of compounds in human whole blood was investigated in accordance with the following protocol. Human whole blood in Li-heparin tubes was obtained from healthy donors from a volunteer donor panel. • 1. […] IL-1β was measured according to the manufacturer protocol (Perkin Elmer-AlphaLisa IL-1 Kit AL220F-5000) • 8. […]
pIC50: −log10 of the molar value. Counter-ions that a name gives are not always drawn.
So I've got a bunch of compounds here, and I need their pIC50 values.

Give pIC50; test system NLRP3 (Homo sapiens); compound CC1CCN1CCS(=O)(=O)NC(=O)Nc1c2c(cc3c1CCC3)CCC2 (centres unmarked)
≥ 6.00

State the measured pIC50 (NLRP3 (Homo sapiens)) of CCN1CCC(CS(=O)(=O)NC(=O)Nc2c3c(cc4c2CCC4)CCC3)CC1 [Example 1, potassium salt]
≥ 6.00

Quote pIC50 with test system NLRP3 (Homo sapiens) for CN(CCCS(=O)(=O)NC(=O)Nc1c2c(cc3c1CCC3)CCC2)Cc1ccccc1 [Example 67, potassium salt]
≥ 5.00

Find the measured pIC50 of CC(=O)N(C)CCCS(=O)(=O)NC(=O)Nc1c2c(cc3c1CCC3)CCC2 [Example 53, Potassium Salt] with NLRP3 (Homo sapiens) as test system.
≥ 6.00

Provide pIC50, tested on NLRP3 (Homo sapiens), for CCN1CCCCC1CS(=O)(=O)NC(=O)Nc1c2c(cc3c1CCC3)CCC2 (centres unmarked) .
≥ 6.00

Give pIC50 only, for CC(CCS(=O)(=O)NC(=O)Nc1c2c(cc3c1CCC3)CCC2)N(C)C (centres unmarked) [Example 78, potassium salt] , using NLRP3 (Homo sapiens) data.
≥ 6.00

// fetch pIC50 for CN(C)C(=O)CCS(=O)(=O)NC(=O)Nc1c2c(cc3c1CCC3)CCC2 ; system: NLRP3 (Homo sapiens)
≥ 5.12

Enter recorded pIC50 with NLRP3 (Homo sapiens) for COCCCS(=O)(=O)NC(=O)Nc1c2c(cc3c1CCC3)CCC2 [Example 14, Potassium Salt] here.
≥ 5.30

* * *

measurement description: PK protocol: pharmacokinetic parameters in male Sprague Dawley rats (intravenous or oral)
Type: in vivo
condition notes: plasma, oral administration, 3 mg/kg, rat
Protocol: Pharmacokinetic parameters were determined in male Sprague Dawley rats (Charles River, UK, 250-350 g; or Vital River Laboratory Animal Technology Co Ltd, Beijing, China, 7-9 weeks old). Animals were individually housed during the study and maintained under a 12 h light/dark cycle. For intravenous administration, compounds were formulated as a solution in water or DMSO:PBS [10:90] in 2 mL/kg dosing volume and administered via tail vein. […]
Structures can show the parent of a compound that is named as a salt.
observation type: half-life (h)
Just the number please, in h, no unit attached.

Using the record for CCN(CC)CCCS(=O)(=O)NC(=O)Nc1c2c(cc3c1CCC3)CCC2 [Example 3, potassium salt] , state its measured half-life.
1.8
